- System: ragweed
- protocol description: Test C pre-/postemergence herbicide test
- Assay type: in vivo, Ambrosia elatior
- cond: Preemergence, 31 g ai/ha; scale 0 to 100, 0 is no effect and 100 is complete control
endpoint label: Ragweed plant response rating

INSERT INTO measurements (compound, measured_on, experimental_value) VALUES
  ('O=C1NCC(c2cccc(C(F)(F)F)c2)C1C(=O)Nc1ccc(F)cc1F (racemic)', 'ragweed', 0),
  ('O=C1NCC(c2cccc(OC(F)(F)F)c2)C1C(=O)Nc1cccc(F)c1F (stereo not drawn)', 'ragweed', 0),
  ('O=C1NCC(c2ccc(C(F)(F)F)cc2)C1C(=O)Nc1ccccc1Cl (stereo not drawn)', 'ragweed', 10),
  ('O=C1NCC(c2cccc(C(F)F)c2)C1C(=O)Nc1cccc(F)c1F (racemic)', 'ragweed', 0),
  ('O=C1NCC(c2ccc(C(F)(F)F)nc2)C1C(=O)Nc1ccccc1F (racemic)', 'ragweed', 0),
  ('CN1CC(c2cccc(C(F)(F)F)c2)C(C(=O)Nc2ccccc2F)C1=O (stereo not drawn)', 'ragweed', 0);

---

Each entry below lists one item and its recorded Corn plant response rating value.
- System: corn
- protocol description: Test C pre-/postemergence herbicide test
- Format: in vivo, Zea mays
- cond: Preemergence, 31 g ai/ha; scale 0 to 100 (0 no effect, 100 complete control)
endpoint label: Corn plant response rating

INSERT INTO results (compound, endpoint_label, experimental_value) VALUES
  ('O=C1NCC(c2ccc(F)cc2)C1C(=O)Nc1ccccc1F (racemic)', 'Corn plant response rating', 0),
  ('O=C1NCC(c2cc(F)c(F)c(F)c2)C1C(=O)Nc1ccccc1F (racemic)', 'Corn plant response rating', 0),
  ('O=C1NCC(c2ccc(F)c(Cl)c2)C1C(=O)Nc1cccc(F)c1F (stereo not shown)', 'Corn plant response rating', 0),
  ('O=C1NCC(c2ccc(Cl)c(F)c2)C1C(=O)Nc1ccccc1F (stereo not shown)', 'Corn plant response rating', 10);

---

- Tested on: crabgrass, large
- protocol description: Test C pre-/postemergence herbicide test
- Format: in vivo, Digitaria sanguinalis
- cond: Postemergence, 62 g ai/ha; scale 0 (no effect) to 100 (complete control)
endpoint label: Plant response rating, Crabgrass, Large

INSERT INTO measurements (compound, experimental_value) VALUES
  ('CN1CC(c2ccc(C(F)(F)F)cc2)C(C(=O)Nc2ccccc2F)C1=O (stereo not drawn)', 60),
  ('CN1CC(c2ccc(F)c(F)c2)C(C(=O)Nc2ccccc2F)C1=O (stereo not drawn)', 50),
  ('O=C1NCC(c2cccc(OC(F)F)c2)C1C(=O)Nc1cccc(F)c1F (stereo not drawn)', 60);

---

- Test system: wheat (winter wheat)
- protocol description: Test C pre-/postemergence herbicide test
- Type: in vivo, Triticum aestivum
- cond: Postemergence; 250 g ai/ha; scale 0 to 100 (0 no effect, 100 complete control)
endpoint label: Plant response rating, Wheat

INSERT INTO assay_data (compound, measured_on, experimental_value) VALUES
  ('O=C1NCC(c2cccc(C(F)(F)F)c2)C1C(=O)Nc1ccc(F)c(F)c1F (centres unmarked) [Compound 315]', 'wheat (winter wheat)', 5),
  ('O=C1NCC(c2cccc(C(F)(F)F)c2)C1C(=O)Nc1ccc(F)cc1F (racemic) [Compound 207]', 'wheat (winter wheat)', 0),
  ('O=C1NCC(c2cc(F)cc(F)c2)C1C(=O)Nc1cccc(F)c1F (racemic) [Compound 279]', 'wheat (winter wheat)', 0),
  ('O=C1NCC(c2cccc(OC(F)F)c2)C1C(=O)Nc1cccc(F)c1F (centres unmarked) [Compound 324]', 'wheat (winter wheat)', 0),
  ('O=C1NCC(c2cccc(C(F)(F)F)c2)C1C(=O)Nc1ccccc1Cl (centres unmarked) [Compound 312]', 'wheat (winter wheat)', 0);

---

- Tested on: corn
- protocol description: Test C pre-/postemergence herbicide test
- Assay type: in vivo, Zea mays
- cond: Preemergence, 31 g ai/ha; scale 0 to 100, 0 is no effect and 100 is complete control
Each entry below lists one item and its recorded Corn plant response rating value.
endpoint label: Corn plant response rating

INSERT INTO assay_data (compound, experimental_value) VALUES
  ('O=C1NCC(c2cccc(C(F)(F)F)c2)C1C(=O)Nc1cccc(Cl)c1F (centres unmarked)', 15),
  ('O=C1NCC(c2ccccc2)C1C(=O)Nc1ccccc1F (racemic)', 0),
  ('O=C1NCC(c2cccc(C(F)(F)F)c2)C1C(=O)Nc1ccccc1Cl (centres unmarked) [Compound 312]', 10),
  ('O=C1NCC(c2ccc(C(F)(F)F)nc2)C1C(=O)Nc1cccc(F)c1F (racemic)', 0),
  ('O=C1NCC(c2cccc(OC(F)(F)F)c2)C1C(=O)Nc1cccc(F)c1F (centres unmarked)', 15),
  ('O=C1NCC(c2cccc(Br)c2)C1C(=O)Nc1ccccc1F (centres unmarked)', 0),
  ('CN1CC(c2cccc(C(F)(F)F)c2)C(C(=O)Nc2ccccc2F)C1=O (centres unmarked)', 25),
  ('O=C1NCC(c2cccc(C(F)(F)F)c2)C1C(=O)Nc1ccccc1Cl (racemic) [Compound 189]', 0),
  ('O=C1NCC(c2ccc(C(F)(F)F)c(F)c2)C1C(=O)Nc1ccccc1F (racemic)', 0),
  ('O=C1NCC(c2ccc(C(F)(F)F)cc2)C1C(=O)Nc1ccc(F)c(F)c1F (centres unmarked)', 0),
  ('O=C1NCC(c2cc(F)cc(F)c2)C1C(=O)Nc1cccc(F)c1F (racemic)', 0);

---

- System: crabgrass, large
- protocol description: Test A pre-/postemergence herbicide test
- Format: in vivo, Digitaria sanguinalis
- cond: Preemergence, 125 g ai/ha; 0 to 100 scale where 0 is no effect and 100 is complete control
endpoint label: Plant response rating, Crabgrass, Large

INSERT INTO assay_data (molecule, endpoint_label, experimental_value) VALUES
  ('O=C1NCC(c2ccc(Cl)c(C(F)(F)F)c2)C1C(=O)Nc1ccccc1C(F)(F)F (racemic)', 'Plant response rating, Crabgrass, Large', 80),
  ('O=C1NCC(c2cccc(C(F)(F)F)c2)C1C(=O)Nc1cccc(F)c1F (stereo not drawn)', 'Plant response rating, Crabgrass, Large', 90),
  ('O=C1NCC(c2ccc(C(F)(F)F)c(Cl)c2)C1C(=O)Nc1ccccc1C(F)(F)F (racemic)', 'Plant response rating, Crabgrass, Large', 80),
  ('O=C1NCC(c2ccc(C(F)(F)F)c(Cl)c2)C1C(=O)Nc1cccc(F)c1F (racemic)', 'Plant response rating, Crabgrass, Large', 80),
  ('O=C1NCC(c2ccc(C(F)(F)F)nc2)C1C(=O)Nc1ccccc1F (racemic)', 'Plant response rating, Crabgrass, Large', 90),
  ('O=C1NCC(c2ccc(C(F)(F)F)nc2)C1C(=O)Nc1ccccc1C(F)(F)F (racemic)', 'Plant response rating, Crabgrass, Large', 100);

---

- Tested on: rice
- protocol description: Test B flooded paddy test
- Format: in vivo, Oryza sativa
- cond: 500 g ai/ha, Flood; scale of 0 to 100 where 0 is no effect and 100 is complete control
endpoint label: Plant response rating, Rice

INSERT INTO assay_data (compound, measured_on, endpoint_label, experimental_value) VALUES
  ('O=C1NCC(c2cccc(OC(F)F)c2)C1C(=O)Nc1ccc(F)c(F)c1F (stereo not shown)', 'rice', 'Plant response rating, Rice', 20),
  ('Cc1cc(C2CNC(=O)C2C(=O)Nc2ccccc2Cl)ccc1F (racemic)', 'rice', 'Plant response rating, Rice', 0),
  ('O=C1NCC(c2ccc3c(c2)OC(F)(F)O3)C1C(=O)Nc1ccccc1F (racemic)', 'rice', 'Plant response rating, Rice', 10),
  ('O=C1NCC(c2cc(F)cc(F)c2)C1C(=O)Nc1ccc(F)cc1F (racemic)', 'rice', 'Plant response rating, Rice', 0);

---

- Test system: waterhemp
- protocol description: Test C pre-/postemergence herbicide test
- Type: in vivo, Amaranthus rudis
- cond: Preemergence, 250 g ai/ha
Label 1 (yes) when Plant response rating (scale of 0 to 100), Waterhemp < 50; otherwise 0 (no).

INSERT INTO results (molecule, label) VALUES
  ('O=C1NCC(c2cccc(OC(F)F)c2)C1C(=O)Nc1ccccc1F (stereo not drawn)', '1 (yes)'),
  ('O=C1NCC(c2ccc(C(F)(F)F)cc2)C1C(=O)Nc1ccc(F)c(F)c1F (stereo not drawn)', '0 (no)'),
  ('O=C1NCC(c2cccc(C(F)F)c2)C1C(=O)Nc1cccc(F)c1F (racemic)', '0 (no)'),
  ('O=C1NCC(c2cccc(Br)c2)C1C(=O)Nc1ccccc1F (stereo not drawn)', '1 (yes)'),
  ('O=C1NCC(c2ccc(F)c(C(F)(F)F)c2)C1C(=O)Nc1ccccc1F (racemic)', '0 (no)');

---

- Tested on: giant foxtail
- protocol description: Test A pre-/postemergence herbicide test
- Format: in vivo, Setaria faberii
- cond: preemergence, 500 g ai/ha; 0 to 100 scale
endpoint label: Plant response rating, Foxtail, Giant

INSERT INTO measurements (compound, endpoint_label, experimental_value) VALUES
  ('O=C1NCC(c2ccc(F)c(Cl)c2)C1C(=O)Nc1cccc(F)c1F (stereo not shown)', 'Plant response rating, Foxtail, Giant', 90),
  ('Cc1ccc(C2CNC(=O)C2C(=O)Nc2ccccc2Cl)cc1F (racemic)', 'Plant response rating, Foxtail, Giant', 90),
  ('COc1cccc(NC(=O)C2C(=O)NCC2c2ccc(F)c(F)c2)n1 (stereo not shown)', 'Plant response rating, Foxtail, Giant', 80),
  ('O=C1NCC(c2cccc(OC(F)(F)C(F)F)c2)C1C(=O)Nc1ccc(F)cc1F (racemic)', 'Plant response rating, Foxtail, Giant', 90),
  ('O=C1NCC(c2ccc(F)c(F)c2)C1C(=O)Nc1ccccc1Br (stereo not shown)', 'Plant response rating, Foxtail, Giant', 90),
  ('O=C1NCC(c2cccc(C(F)F)c2)C1C(=O)Nc1ccc(F)c(F)c1F (racemic)', 'Plant response rating, Foxtail, Giant', 90),
  ('NC1=NCC(c2ccc(F)c(F)c2)C1C(=O)Nc1ccccc1F (stereo not shown)', 'Plant response rating, Foxtail, Giant', 90),
  ('O=C1NCC(c2ccc(F)c(F)c2)C1C(=O)Nc1cccc2c1OC(F)(F)O2 (stereo not shown)', 'Plant response rating, Foxtail, Giant', 80),
  ('O=C1NCC(c2cccc(C(F)(F)F)c2)C1C(=O)Nc1ncc(Cl)s1 (racemic)', 'Plant response rating, Foxtail, Giant', 0),
  ('O=C1NCC(c2ccc(Cl)nc2)C1C(=O)Nc1ccccc1C(F)(F)F (stereo not shown)', 'Plant response rating, Foxtail, Giant', 80);
